# System: HDV
# method notes: HDV infection in HepG2-NTCP cells and RNA quantification (RT-qPCR)
# Format: cell-based
# settings: 288 h; HDV infection of HepG2-NTCP cells; viral RNA by RT-qPCR at day 12 post infection; read-out: Cellular EC50
# Protocol: HDV virus collected from the supernatants of HuH7-END cells was purified in the presence of 6% polyethylene glycol (PEG). Viral titer was then quantified by RT-qPCR using HDV specific primers against a reference standard. For HDV infection, HepG2-NTCP cells were seeded in 96-well plates at 60,000 cells/well. […] Relative HDV gene expression was quantified by RT-qPCR after normalization to expression of a housekeeping gene. […]
Measured EC50 accompanies every entry in the list below.
metric: EC50

>>> print(df.to_string())
                              record_smiles  experimental_target    result
0  Cc1cc(-c2cc3c(cc2Cl)N(c2ccccc2)C[C@@H](C2CCCCC2)N(C)S3(=O)=O)sc1C(=O)O                  HDV  < 100 nM
1  CN1[C@H](C2CCCCC2)CN(c2ccccc2)c2cc(Cl)c(-c3ccc(F)c(C(=O)O)c3)cc2S1(=O)=O                  HDV  < 100 nM
2  CN1[C@H](C2CCCCC2)CN(c2ccccc2)c2cc(Cl)c(-c3cc(F)c(C(=O)O)s3)cc2S1(=O)=O                  HDV  < 100 nM

====

# experimental target: UniProt Q14973
# method notes: HepG2-NTCP preS1 binding competition assay (FITC-labeled myristoylated preS1 peptide)
# settings: HepG2-NTCP cells; competition with FITC-labeled preS1 peptide
pEC50: −log10 of the molar value.
metric: pEC50

                                   molecule  metric        result
0  CCOC(=O)Nc1cc(-c2cc3c(cc2Cl)N(c2ccccc2)C[C@@H](C2CCCCC2)N(C)S3(=O)=O)sc1C(=O)O [Example 240]   pEC50        > 7.00
1  CCOc1ccccc1N1C[C@@H](C2CCCCC2)N(C)S(=O)(=O)c2cc(-c3ccc(F)c(C(=O)O)c3)c(Cl)cc21 [Example 307]   pEC50        < 6.00
2  CN1[C@H](C2CCCCC2)CN(c2ccccc2)c2cc(Cl)c(N3CC[C@@H](C(=O)O)C3)cc2S1(=O)=O [Example 610]   pEC50  6.00 to 7.00
3  CN1[C@H](C2CCCCC2)CN(C2CCOCC2)c2cc(Cl)c(-c3ccc(F)c(C(=O)O)c3)cc2S1(=O)=O [Example 321]   pEC50  6.00 to 7.00
4  COC(C)(C)COC(=O)Nc1cc(-c2cc3c(cc2Cl)N(c2ccccc2)C[C@@H](C2CCCCC2)N(C)S3(=O)=O)sc1C(=O)O [Example 239]   pEC50        > 7.00
5  COc1cc2c(cc1-c1ccc(F)c(C(=O)O)c1)S(=O)(=O)N(C)[C@H](C1CCCCC1)CN2c1ccccc1 [Example 348]   pEC50        > 7.00
6  CN1[C@H](C2CCCCC2)CN(c2ccccc2)c2cc(Cl)c(-c3ccc(S(N)(=O)=O)s3)cc2S1(=O)=O [Example 201]   pEC50        < 6.00

====

# experimental target: NTCP (Homo sapiens, UniProt Q14973)
# Construct: expressed in transfected cells; host or cells: HepG2-NTCP (clone A3, kept under puromycin)
# Sequence (Q14973 1-349): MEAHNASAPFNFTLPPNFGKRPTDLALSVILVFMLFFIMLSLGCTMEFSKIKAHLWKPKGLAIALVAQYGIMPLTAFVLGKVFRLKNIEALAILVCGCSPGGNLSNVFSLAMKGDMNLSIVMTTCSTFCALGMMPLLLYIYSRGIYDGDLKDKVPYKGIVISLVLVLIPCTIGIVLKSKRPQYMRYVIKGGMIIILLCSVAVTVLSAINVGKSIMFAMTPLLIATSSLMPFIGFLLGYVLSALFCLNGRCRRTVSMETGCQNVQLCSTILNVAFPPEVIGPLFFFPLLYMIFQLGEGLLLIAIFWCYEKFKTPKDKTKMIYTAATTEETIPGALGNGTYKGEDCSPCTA
# method notes: HepG2-NTCP preS1 binding competition assay (FITC-labeled myristoylated preS1 peptide)
# settings: HepG2-NTCP cells; competition with FITC-labeled preS1 peptide
Reported EC50 values follow for various compounds
metric: EC50

>>> df
                              record_smiles     result
0  CCCS(=O)(=O)Nc1ccc(-c2cc3c(cc2Cl)N(c2ccccc2)C[C@@H](C2CCCCC2)N(C)S3(=O)=O)cc1C(=O)O   < 100 nM
1  CN1[C@H](C2CCCCC2)CN(c2ccccc2)c2cc(OCc3c[nH]cn3)c(-c3ccc(F)c(C(=O)O)c3)cc2S1(=O)=O  > 1000 nM
2  CC(C)COC(=O)Nc1cc(-c2cc3c(cc2Cl)N(c2ccccc2)C[C@@H](C2CCCCC2)N(C)S3(=O)=O)sc1C(=O)O   < 100 nM
3  CCCCCCS(=O)(=O)Nc1ccc(-c2cc3c(cc2Cl)N(c2ccccc2)C[C@@H](C2CCCCC2)N(C)S3(=O)=O)cc1C(=O)O   < 100 nM
4  COc1ccccc1N1C[C@@H](C2CCCCC2)N(C)S(=O)(=O)c2cc(-c3ccc(F)c(C(=O)O)c3)c(Cl)cc21  > 1000 nM
5  CN1[C@H](C2CCCCC2)CN(c2csc(Cl)c2)c2cc(Cl)c(-c3ccc(F)c(C(=O)O)c3)cc2S1(=O)=O   < 100 nM

====

# experimental target: UniProtKB Q14973
# method notes: HepG2-NTCP preS1 binding competition assay (FITC-labeled myristoylated preS1 peptide)
# settings: HepG2-NTCP cells; competition with FITC-labeled preS1 peptide
pEC50: −log10 of the molar value.
metric: pEC50

In [3]: df
Out[3]:
                                   molecule        result
0  Cc1cc(-c2cc3c(cc2OCC(F)(F)F)N(c2ccccc2)C[C@@H](C2CCCCC2)N(C)S3(=O)=O)sc1C(=O)O [Example 512]        > 7.00
1  COCCOc1cc2c(cc1-c1ccc(F)c(C(=O)O)c1)S(=O)(=O)N(C)[C@H](C1CCCCC1)CN2c1ccccc1 [Example 388]        > 7.00
2  CN1[C@H](C2CCCCC2)CN(c2ccccc2)c2cc(Cl)c(N3C[C@@H](C(=O)O)[C@H](c4ccccc4)C3)cc2S1(=O)=O [Example 613]  6.00 to 7.00
3  CN1[C@H](C2CCCCC2)CN(c2ccccc2)c2cc(C34CC(C(F)(F)F)(C3)C4)c(-c3ccc(F)c(C(=O)O)c3)cc2S1(=O)=O [Example 595]        > 7.00
4  CC(=O)NS(=O)(=O)c1ccc(-c2cc3c(cc2Cl)N(c2ccccc2)C[C@@H](C2CCCCC2)N(C)S3(=O)=O)s1 [Example 225]  6.00 to 7.00

====

# experimental target: UniProt Q14973
# method notes: HepG2-NTCP preS1 binding competition assay (FITC-labeled myristoylated preS1 peptide)
# settings: HepG2-NTCP cells; competition with FITC-labeled preS1 peptide
pEC50: −log10 of the molar value.
Overview of reported pEC50 across a group of compounds:
metric: pEC50

>>> df
                                    compound  experimental_target        result
 0  CN1[C@H](C2CCCCC2)CN(c2ncco2)c2cc(Cl)c(-c3ccc(F)c(C(=O)O)c3)cc2S1(=O)=O       UniProt Q14973        < 6.00
 1  CN1[C@H](C2CCCCC2)CN(c2ccccc2)c2cc(Cl)c(-c3ccc(N)c(C(=O)O)c3)cc2S1(=O)=O       UniProt Q14973  6.00 to 7.00
 2  CCCCCN1C[C@@H](C2CCCCC2)N(C)S(=O)(=O)c2cc(-c3ccc(F)c(C(=O)O)c3)c(Cl)cc21       UniProt Q14973        > 7.00
 3  COC1CC(OC(=O)Nc2cc(-c3cc4c(cc3Cl)N(c3ccccc3)C[C@@H](C3CCCCC3)N(C)S4(=O)=O)sc2C(=O)O)C1 (stereo partly shown)       UniProt Q14973        > 7.00
 4  CCCS(=O)(=O)Nc1cc(-c2cc3c(cc2Cl)N(c2ccccc2)C[C@@H](C2CCCCC2)N(C)S3(=O)=O)sc1C(=O)O       UniProt Q14973        > 7.00
 5  COCCCOC(=O)Nc1cc(-c2cc3c(cc2Cl)N(c2ccccc2)C[C@@H](C2CCCCC2)N(C)S3(=O)=O)sc1C(=O)O       UniProt Q14973        > 7.00
 6  Cc1cc(-c2cc3c(cc2F)N(c2ccccc2)C[C@@H](C2CCCCC2)N(C)S3(=O)=O)sc1C(=O)O       UniProt Q14973        > 7.00
 7  COCCOc1cc2c(cc1-c1cc(F)c(C(=O)O)s1)S(=O)(=O)N(C)[C@H](C1CCCCC1)CN2c1ccccc1       UniProt Q14973        > 7.00
 8  CN1[C@H](C2CCCCC2)CN(c2ccccc2)c2cc(Cl)c(N3CCC(F)(C(=O)O)C3)cc2S1(=O)=O (mixture of isomers)       UniProt Q14973        > 7.00
 9  CCCCOC(=O)Nc1cc(-c2cc3c(cc2Cl)N(c2ccccc2)C[C@@H](C2CCCCC2)N(C)S3(=O)=O)sc1C(=O)O       UniProt Q14973        > 7.00
10  CCCCC1CN(c2ccccc2)c2cc(CN3CCCC3)c(-c3ccc(F)c(C(=O)O)c3)cc2S(=O)(=O)N1C (stereo not shown)       UniProt Q14973        > 7.00
11  CN1[C@H](C2CCCCC2)CN(c2ccccc2)c2cc(F)c(-c3ccc(NC(=O)OCc4ccccc4)c(C(=O)O)c3)cc2S1(=O)=O       UniProt Q14973        > 7.00
12  CN1[C@H](C2CCCCC2)CN(c2nccs2)c2cc(Cl)c(-c3ccc(F)c(C(=O)O)c3)cc2S1(=O)=O       UniProt Q14973  6.00 to 7.00
